Just for reference, patent US12617773B2 is where these values come from.

Reported values of IC50 for individual entries
# tested_on: human CCR6 (Homo sapiens, UniProt P51684)
# Construct: expressed in transfected cells; host or cells: HEK-293
# Sequence (P51684 1-374): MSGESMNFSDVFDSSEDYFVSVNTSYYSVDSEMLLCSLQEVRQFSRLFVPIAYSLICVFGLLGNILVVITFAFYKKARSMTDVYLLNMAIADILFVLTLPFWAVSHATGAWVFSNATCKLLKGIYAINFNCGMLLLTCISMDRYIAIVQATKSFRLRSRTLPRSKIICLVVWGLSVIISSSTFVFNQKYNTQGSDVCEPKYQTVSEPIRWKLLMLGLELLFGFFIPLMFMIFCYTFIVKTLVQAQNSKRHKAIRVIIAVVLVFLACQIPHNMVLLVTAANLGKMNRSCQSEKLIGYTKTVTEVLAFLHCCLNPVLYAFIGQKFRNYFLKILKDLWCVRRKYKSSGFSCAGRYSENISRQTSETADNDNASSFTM
# measurement_description: FLIPR assay (inhibition of CCL20-induced calcium signal)
# Assay type: cell-based
# assay_context: HEK-293 cells expressing human CCR6; mean values where determined several times; read-out: FLIPR IC50

molecule: CC1([C@](O)(c2ccc(OC(F)(F)F)cc2)c2cncc(N3CCCC3)c2)CN(CC2CC2)C1 [Example 6]
IC50 [nM]: 47.2
--
molecule: CC(=O)N1CCC(C#Cc2cc([C@@](O)(c3ccc(C(C)C)cc3)C3(C)CN(C)C3)cnn2)CC1 [Example 662]
IC50 [nM]: 331
--
molecule: CC(C)c1ccc([C@](O)(c2cncc(CCC3CCOCC3)c2)C2(C)CN(C)C2)cc1 [Example 65]
IC50 [nM]: 44.7

----------
# tested_on: human CCR6 (Homo sapiens, UniProt P51684)
# Construct: expressed in transfected cells; host or cells: HEK-293
# measurement_description: FLIPR assay (inhibition of CCL20-induced calcium signal)
# Type: cell-based
# assay_context: HEK-293 cells expressing human CCR6; mean values where determined several times; read-out: FLIPR IC50
Attribute: IC50

molecule: CC(=O)N1CCC(c2nc(-c3cncc([C@@](O)(c4ccc(C(C)C)c(F)c4)C4(C)CN(C)C4)c3)no2)CC1
tested_on: human CCR6 (Homo sapiens, UniProt P51684)
unit_spec: nM
IC50: 76.8

molecule: CN1CC(C)([C@](O)(c2ccc(S(F)(F)(F)(F)F)cc2)c2cncc(-c3noc(C(C)(C)O)n3)c2)C1
tested_on: human CCR6 (Homo sapiens, UniProt P51684)
unit_spec: nM
IC50: 145

molecule: CC(C)c1ccc([C@](O)(c2cncc(-c3noc(C4CCN(C(=O)CC5COC5)CC4)n3)c2)C2(C)CN(C)C2)cc1
tested_on: human CCR6 (Homo sapiens, UniProt P51684)
unit_spec: nM
IC50: 121

molecule: CC(C)c1ccc([C@](O)(c2cncc(-c3noc(C4CNC(=O)C4)n3)c2)C2(C)CN(C)C2)cc1 (stereo partly drawn)
tested_on: human CCR6 (Homo sapiens, UniProt P51684)
unit_spec: nM
IC50: 131

molecule: CC(C)c1ccc([C@](O)(c2cncc(N3C[C@H]4CC[C@@H](C3)O4)c2)C2(C)CN(C)C2)cc1
tested_on: human CCR6 (Homo sapiens, UniProt P51684)
unit_spec: nM
IC50: 82.9

molecule: CC(C)c1ccc([C@](O)(c2cncc(-c3noc(C4CCN(C)C(=O)C4)n3)c2)C2(C)CN(C)C2)cc1 (stereo partly drawn)
tested_on: human CCR6 (Homo sapiens, UniProt P51684)
unit_spec: nM
IC50: 120
